Field: pIC50. Provide a value for each of the compounds that follow.
System: 885724-159-R-J1-PDC complex spheroid viability
Protocol text: Anticancer human tumor 885724-159-R-J1-PDC patient-derived pancreatic adenocarcinoma cell line growth inhibition [GQUAD]
Condition context: curve of first compound; second compound 0.0316 µM
pIC50: −log10 of the molar value.

Please review the entries below; each comes with its answer.
[[record]]
compound = "CC(=O)O[C@H]1C(=O)[C@@]2(C)[C@H]([C@H](OC(=O)c3ccccc3)[C@]3(O)C[C@H](OC(=O)[C@H](O)[C@@H](NC(=O)c4ccccc4)c4ccccc4)C(C)=C1C3(C)C)[C@]1(OC(C)=O)CO[C@@H]1C[C@@H]2O + CN(C)c1ccc(Nc2c3ccc(NC(=O)CCN4CCCC4)cc3nc3cc(NC(=O)CCN4CCCC4)ccc23)cc1"
experimental_value = "< 5.00"

[[record]]
compound = "C=CC(=O)N1CCN(c2nc(=O)n(-c3c(C)ccnc3C(C)C)c3nc(-c4c(O)cccc4F)c(F)cc23)C(C)C1 (stereo unspecified) + CN(C)c1ccc(Nc2c3ccc(NC(=O)CCN4CCCC4)cc3nc3cc(NC(=O)CCN4CCCC4)ccc23)cc1"
experimental_value = "< 5.00"

[[record]]
compound = "COc1cc(C2c3cc4c(cc3C(OC3OC5COC(C)OC5C(O)C3O)C3COC(=O)C23)OCO4)cc(OC)c1O (stereo unspecified) + CN(C)c1ccc(Nc2c3ccc(NC(=O)CCN4CCCC4)cc3nc3cc(NC(=O)CCN4CCCC4)ccc23)cc1"
experimental_value = "< 5.00"

[[record]]
compound = "Cn1ncnc1[C@H]1c2n[nH]c(=O)c3cc(F)cc(c23)N[C@@H]1c1ccc(F)cc1 + Cc1[nH]c2ccc(F)cc2c1-c1nc2c3cccnc3c3ncccc3c2[nH]1"
experimental_value = "< 6.50"

[[record]]
compound = "C=CC(=O)N1CCN(c2nc(=O)n(-c3c(C)ccnc3C(C)C)c3nc(-c4c(O)cccc4F)c(F)cc23)C(C)C1 (stereo unspecified) + Cc1[nH]c2ccc(F)cc2c1-c1nc2c3cccnc3c3ncccc3c2[nH]1"
experimental_value = "< 5.00"


Turning now to a further compound:
input: Look up pIC50 with 885724-159-R-J1-PDC complex spheroid viability for this compound: COc1ncnc(C2CC2)c1-c1ncc2cnn(Cc3ccc(-c4nc(C(F)(F)F)cn4C(C)C)cc3)c2n1 + Cc1cnc(CNC(=O)c2c(=O)c3ccc(N4CCCN(C)CC4)nc3n3c2sc2ccccc23)cn1
output: < 5.00

====

Test system: 885724-159-R-J1-PDC complex spheroid viability
Protocol text: Anticancer human tumor 885724-159-R-J1-PDC cell line growth inhibition [GQUAD];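 further: spheroids exposed to agents for seven days before readout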;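 on viability, T/C: percent of vehicle control viability where 100% = DMSO wells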
Condition context: second compound 0.1 µM; first compound 0.316 µM; stronger effect = lower value
Attribute measured: viability, T/C (%)
Give bare numbers, in %.

For every item in the list below, what is its measured viability, T/C?
1. CCc1c2c(nc3ccc(O)cc13)-c1cc3c(c(=O)n1C2)COC(=O)[C@]3(O)CC + CN(C)c1ccc(Nc2c3ccc(NC(=O)CCN4CCCC4)cc3nc3cc(NC(=O)CCN4CCCC4)ccc23)cc1
2. CC1COCCN1c1cc(C2(S(C)(=N)=O)CC2)nc(-c2ccnc3[nH]ccc23)n1 (centres undefined) + CN(C)c1ccc(Nc2c3ccc(NC(=O)CCN4CCCC4)cc3nc3cc(NC(=O)CCN4CCCC4)ccc23)cc1

output:
[7.61, 82]

For every item in the list below, what is its measured viability, T/C?
1. Nc1ccn(C2OC(CO)C(O)C2(F)F)c(=O)n1 (centres undefined) + Cc1[nH]c2ccc(F)cc2c1-c1nc2c3cccnc3c3ncccc3c2[nH]1
2. Nc1ccn(C2OC(CO)C(O)C2(F)F)c(=O)n1 (centres undefined) + Cc1cnc(CNC(=O)c2c(=O)c3ccc(N4CCCN(C)CC4)nc3n3c2sc2ccccc23)cn1

output:
71.4
82.9

====

Tested on: 885724-159-R-J1-PDC complex spheroid viability
Protocol text: Anticancer human tumor 885724-159-R-J1-PDC cell line growth inhibition [GQUAD];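 further: spheroids exposed to agents for seven days before readout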;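 on viability, T/C: percent of vehicle control viability where 100% = DMSO wells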
Condition context: second compound 0.0316 µM; first compound 3.16 µM; stronger effect = lower value
Field: viability, T/C. Provide a value for each of the compounds that follow.
Numbers only, in %.

Please review the entries below; each comes with its answer.
[[record]]
compound = "C=CC(=O)N1CCN(c2nc(=O)n(-c3c(C)ccnc3C(C)C)c3nc(-c4c(O)cccc4F)c(F)cc23)C(C)C1 (stereo unspecified) + CN(C)c1ccc(Nc2c3ccc(NC(=O)CCN4CCCC4)cc3nc3cc(NC(=O)CCN4CCCC4)ccc23)cc1"
endpoint_unit = "%"
experimental_value = 103

[[record]]
compound = "COc1ncnc(C2CC2)c1-c1ncc2cnn(Cc3ccc(-c4nc(C(F)(F)F)cn4C(C)C)cc3)c2n1 + Cc1[nH]c2ccc(F)cc2c1-c1nc2c3cccnc3c3ncccc3c2[nH]1"
endpoint_unit = "%"
experimental_value = 89.9

[[record]]
compound = "CC(=O)O[C@H]1C(=O)[C@@]2(C)[C@H]([C@H](OC(=O)c3ccccc3)[C@]3(O)C[C@H](OC(=O)[C@H](O)[C@@H](NC(=O)c4ccccc4)c4ccccc4)C(C)=C1C3(C)C)[C@]1(OC(C)=O)CO[C@@H]1C[C@@H]2O + Cc1cnc(CNC(=O)c2c(=O)c3ccc(N4CCCN(C)CC4)nc3n3c2sc2ccccc23)cn1"
endpoint_unit = "%"
experimental_value = 104


For every item in the list below, what is its measured viability, T/C?
1. COc1ccc([C@@H](O)c2cc(-c3ncnc4cc(N5CCOCC5)ccc34)c(F)cc2Cl)nn1 + CN(C)c1ccc(Nc2c3ccc(NC(=O)CCN4CCCC4)cc3nc3cc(NC(=O)CCN4CCCC4)ccc23)cc1
2. CC1COCCN1c1cc(C2(S(C)(=N)=O)CC2)nc(-c2ccnc3[nH]ccc23)n1 (stereo unspecified) + Cc1[nH]c2ccc(F)cc2c1-c1nc2c3cccnc3c3ncccc3c2[nH]1
3. CC1COCCN1c1cc(-c2ccnn2C)c2ccnc(-c3ccn[nH]3)c2n1 (stereo unspecified) + Cc1[nH]c2ccc(F)cc2c1-c1nc2c3cccnc3c3ncccc3c2[nH]1
4. Cc1cccc(N(C)C(=O)C2C(O)CCN2c2nc(C)cc(C(F)(F)F)c2C#N)c1 (stereo unspecified) + Cc1[nH]c2ccc(F)cc2c1-c1nc2c3cccnc3c3ncccc3c2[nH]1
5. C=CCn1c(=O)c2cnc(Nc3ccc(N4CCN(C)CC4)cc3)nc2n1-c1cccc(C(C)(C)O)n1 + Cc1[nH]c2ccc(F)cc2c1-c1nc2c3cccnc3c3ncccc3c2[nH]1
6. O=c1[nH]cc(F)c(=O)[nH]1 + Cc1[nH]c2ccc(F)cc2c1-c1nc2c3cccnc3c3ncccc3c2[nH]1
7. O=c1[nH]cc(F)c(=O)[nH]1 + Cc1cnc(CNC(=O)c2c(=O)c3ccc(N4CCCN(C)CC4)nc3n3c2sc2ccccc23)cn1

output:
1: 58.4; 2: 95.7; 3: 53.3; 4: 94.2; 5: 68.8; 6: 97.1; 7: 87.1

input: State the recorded viability, T/C for this entry: CC(C)n1c(=O)n(C)c2cnc3cc(F)c(-c4ccc(OCCCN5CCCCC5)nc4)cc3c21 + Cc1cnc(CNC(=O)c2c(=O)c3ccc(N4CCCN(C)CC4)nc3n3c2sc2ccccc23)cn1
output: 77.6

====

Tested on: 885724-159-R-J1-PDC complex spheroid viability
Protocol text: Anticancer human tumor 885724-159-R-J1-PDC cell line growth inhibition [GQUAD];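 further: spheroids exposed to agents for seven days before readout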
Condition context: curve of first compound; second compound 0.0316 µM
Attribute measured: IC50

[[record]]
compound = "O=C(c1cc(Cc2n[nH]c(=O)c3ccccc23)ccc1F)N1CCN(C(=O)C2CC2)CC1 + Cc1[nH]c2ccc(F)cc2c1-c1nc2c3cccnc3c3ncccc3c2[nH]1"
experimental_value = "> 10 µM"


For every item in the list below, what is its measured IC50?
1. O=C(c1cc(Cc2n[nH]c(=O)c3ccccc23)ccc1F)N1CCN(C(=O)C2CC2)CC1 + Cc1cnc(CNC(=O)c2c(=O)c3ccc(N4CCCN(C)CC4)nc3n3c2sc2ccccc23)cn1
2. O=c1[nH]cc(F)c(=O)[nH]1 + CN(C)c1ccc(Nc2c3ccc(NC(=O)CCN4CCCC4)cc3nc3cc(NC(=O)CCN4CCCC4)ccc23)cc1

output:
1. > 10 µM
2. > 10 µM

====

Tested on: 885724-159-R-J1-PDC complex spheroid viability
Protocol text: Anticancer human tumor 885724-159-R-J1-PDC cell line growth inhibition [GQUAD];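 further: spheroids exposed to agents for seven days before readout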
Condition context: curve of first compound; second compound 0.0316 µM
Description: DNA G-quadruplex Stabilizer Agents in Combinations in Complex Spheroids A high-throughput screen of multi-cell type tumor spheroids was designed to identify active combinations of DNA G-quadruplex stabilizer agents and targeted small molecules. […] Compounds. […] If the clinical Cmax for an agent had not been determined, the highest concentration tested was 10 microM. […]
pIC50: −log10 of the molar value.
Field: pIC50. Provide a value for each of the molecules that follow.

Please review the entries below; each comes with its answer.
[[record]]
molecule = "Nc1ccn(C2OC(CO)C(O)C2(F)F)c(=O)n1 (stereo not drawn) + Cc1cnc(CNC(=O)c2c(=O)c3ccc(N4CCCN(C)CC4)nc3n3c2sc2ccccc23)cn1"
experimental_value = "< 5.00"

[[record]]
molecule = "CC[C@@]1(O)C(=O)OCc2c1cc1n(c2=O)Cc2cc3c(CN(C)C)c(O)ccc3nc2-1 + Cc1[nH]c2ccc(F)cc2c1-c1nc2c3cccnc3c3ncccc3c2[nH]1"
experimental_value = "< 6.50"


Turning now to a further molecule:
input: Look up pIC50 with 885724-159-R-J1-PDC complex spheroid viability for this molecule: Cn1ncnc1[C@H]1c2n[nH]c(=O)c3cc(F)cc(c23)N[C@@H]1c1ccc(F)cc1 + Cc1cnc(CNC(=O)c2c(=O)c3ccc(N4CCCN(C)CC4)nc3n3c2sc2ccccc23)cn1
output: < 6.50
